Tested on: 616215-338-R-J1-PDC tumor spheroids, viability
measurement-protocol: Anticancer human tumor 616215-338-R-J1-PDC patient-derived colon adenocarcinoma cell line growth inhibition [GQUAD]
experimental-conditions: curve of first compound; second compound 3.16 µM; spheroids with HUVEC and MSC
Listing: pIC50 of selected compounds
Note on units: pIC50 is unitless, being -log10 of a concentration expressed in mol/L.

Given the entry CC1COCCN1c1cc(C2(S(C)(=N)=O)CC2)nc(-c2ccnc3[nH]ccc23)n1 (stereo unspecified) + CN(C)c1ccc(Nc2c3ccc(NC(=O)CCN4CCCC4)cc3nc3cc(NC(=O)CCN4CCCC4)ccc23)cc1 , report its measured pIC50.
5.29

Quick one: pIC50 for O=c1[nH]cc(F)c(=O)[nH]1 + CN(C)c1ccc(Nc2c3ccc(NC(=O)CCN4CCCC4)cc3nc3cc(NC(=O)CCN4CCCC4)ccc23)cc1 ?
6.42

Tell me the measured pIC50 of CC(C)n1c(=O)n(C)c2cnc3cc(F)c(-c4ccc(OCCCN5CCCCC5)nc4)cc3c21 + CN(C)c1ccc(Nc2c3ccc(NC(=O)CCN4CCCC4)cc3nc3cc(NC(=O)CCN4CCCC4)ccc23)cc1 , please.
5.00

What value of measured pIC50 is listed for C#Cc1c(F)ccc2cc(O)cc(-c3ncc4c(N5CC6CCC(C5)N6)nc(OCC56CCCN5CC(F)C6)nc4c3F)c12 (stereo unspecified) + Cc1cnc(CNC(=O)c2c(=O)c3ccc(N4CCCN(C)CC4)nc3n3c2sc2ccccc23)cn1 ?
7.36

For Cc1[nH]c2ccccc2c1CCNCc1ccc(/C=C/C(=O)NO)cc1 + CN(C)c1ccc(Nc2c3ccc(NC(=O)CCN4CCCC4)cc3nc3cc(NC(=O)CCN4CCCC4)ccc23)cc1 , what is its reported pIC50?
7.04

What value of pIC50 has been reported for the following compound? CCc1c2c(nc3ccc(O)cc13)-c1cc3c(c(=O)n1C2)COC(=O)[C@]3(O)CC + Cc1[nH]c2ccc(F)cc2c1-c1nc2c3cccnc3c3ncccc3c2[nH]1
7.88

Could you tell me which pIC50 is on file for CC[C@@]1(O)C(=O)OCc2c1cc1n(c2=O)Cc2cc3c(CN(C)C)c(O)ccc3nc2-1 + Cc1[nH]c2ccc(F)cc2c1-c1nc2c3cccnc3c3ncccc3c2[nH]1 ?
6.58

Given CCCS(=O)(=O)Nc1ccc(F)c(C(=O)c2c[nH]c3ncc(-c4ccc(Cl)cc4)cc23)c1F + CN(C)c1ccc(Nc2c3ccc(NC(=O)CCN4CCCC4)cc3nc3cc(NC(=O)CCN4CCCC4)ccc23)cc1 , state its recorded pIC50.
5.29

Reported pIC50 for C=CCn1c(=O)c2cnc(Nc3ccc(N4CCN(C)CC4)cc3)nc2n1-c1cccc(C(C)(C)O)n1 + CN(C)c1ccc(Nc2c3ccc(NC(=O)CCN4CCCC4)cc3nc3cc(NC(=O)CCN4CCCC4)ccc23)cc1 : what is it?
6.51

Data request, read-out pIC50, for COc1cc(C2c3cc4c(cc3C(OC3OC5COC(C)OC5C(O)C3O)C3COC(=O)C23)OCO4)cc(OC)c1O (stereo unspecified) + CN(C)c1ccc(Nc2c3ccc(NC(=O)CCN4CCCC4)cc3nc3cc(NC(=O)CCN4CCCC4)ccc23)cc1
6.19

Entry under review: CC1COCCN1c1cc(C2(S(C)(=N)=O)CC2)nc(-c2ccnc3[nH]ccc23)n1 (stereo unspecified) + Cc1[nH]c2ccc(F)cc2c1-c1nc2c3cccnc3c3ncccc3c2[nH]1 . Reported pIC50?
5.22

Given the compound C#Cc1c(F)ccc2cc(O)cc(-c3ncc4c(N5CC6CCC(C5)N6)nc(OCC56CCCN5CC(F)C6)nc4c3F)c12 (stereo unspecified) + Cc1[nH]c2ccc(F)cc2c1-c1nc2c3cccnc3c3ncccc3c2[nH]1 , what is its reported pIC50?
5.09

I have this compound here, CCCS(=O)(=O)Nc1ccc(F)c(C(=O)c2c[nH]c3ncc(-c4ccc(Cl)cc4)cc23)c1F + Cc1[nH]c2ccc(F)cc2c1-c1nc2c3cccnc3c3ncccc3c2[nH]1 , and I need its recorded pIC50.
5.28

Could you tell me which pIC50 is on file for CC(C)(O)C1CCC(Nc2ccc3ncc(-c4cccc(C(F)(F)F)c4)n3n2)CC1 (stereo unspecified) + Cc1[nH]c2ccc(F)cc2c1-c1nc2c3cccnc3c3ncccc3c2[nH]1 ?
6.23

----------
System: 616215-338-R-J1-PDC tumor spheroids, viability
measurement-protocol: Anticancer human tumor 616215-338-R-J1-PDC cell line growth inhibition [GQUAD];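 further: spheroids exposed to agents for 7 days before readout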;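 on viability, T/C: percent viability relative to DMSO vehicle control wells taken as 100%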
experimental-conditions: second compound 0.0316 µM; first compound 1 µM; stronger effect = lower value; spheroids with HUVEC and MSC
Catalogue of viability, T/C values
Write the value in % as a bare number.

Reported viability, T/C, compound CC(=O)O[C@H]1C(=O)[C@@]2(C)[C@H]([C@H](OC(=O)c3ccccc3)[C@]3(O)C[C@H](OC(=O)[C@H](O)[C@@H](NC(=O)c4ccccc4)c4ccccc4)C(C)=C1C3(C)C)[C@]1(OC(C)=O)CO[C@@H]1C[C@@H]2O + Cc1cnc(CNC(=O)c2c(=O)c3ccc(N4CCCN(C)CC4)nc3n3c2sc2ccccc23)cn1 : ____
15.9

// switching to the query compound
Consider the compound O=C(c1cc(Cc2n[nH]c(=O)c3ccccc23)ccc1F)N1CCN(C(=O)C2CC2)CC1 + Cc1cnc(CNC(=O)c2c(=O)c3ccc(N4CCCN(C)CC4)nc3n3c2sc2ccccc23)cn1 and give its measured viability, T/C.
87.9

----------
Consider the following compounds and their measured viability, T/C readings.
Tested on: 616215-338-R-J1-PDC tumor spheroids, viability
measurement-protocol: Anticancer human tumor 616215-338-R-J1-PDC cell line growth inhibition [GQUAD];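 further: spheroids exposed to agents for 7 days before readout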;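 on viability, T/C: percent viability relative to DMSO vehicle control wells taken as 100%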
experimental-conditions: second compound 1 µM; first compound 0.000999 µM; stronger effect = lower value; spheroids with HUVEC and MSC
Give the number; % is assumed, so skip it.

Some entries whose results are on file:
What value of viability, T/C has been recorded for this entry: Cn1ncnc1[C@H]1c2n[nH]c(=O)c3cc(F)cc(c23)N[C@@H]1c1ccc(F)cc1 + Cc1[nH]c2ccc(F)cc2c1-c1nc2c3cccnc3c3ncccc3c2[nH]1
100

I would be grateful if you could share the reported viability, T/C for Cc1[nH]c2ccccc2c1CCNCc1ccc(/C=C/C(=O)NO)cc1 + Cc1cnc(CNC(=O)c2c(=O)c3ccc(N4CCCN(C)CC4)nc3n3c2sc2ccccc23)cn1 .
36.5

What value of viability, T/C has been recorded for this entry: CC[C@@]1(O)C(=O)OCc2c1cc1n(c2=O)Cc2cc3c(CN(C)C)c(O)ccc3nc2-1 + CN(C)c1ccc(Nc2c3ccc(NC(=O)CCN4CCCC4)cc3nc3cc(NC(=O)CCN4CCCC4)ccc23)cc1
105

For CC[C@@]1(O)C(=O)OCc2c1cc1n(c2=O)Cc2cc3c(CN(C)C)c(O)ccc3nc2-1 + Cc1cnc(CNC(=O)c2c(=O)c3ccc(N4CCCN(C)CC4)nc3n3c2sc2ccccc23)cn1 , what is its reported viability, T/C?
36.9

Look at this compound and give its reported viability, T/C. CCc1c2c(nc3ccc(O)cc13)-c1cc3c(c(=O)n1C2)COC(=O)[C@]3(O)CC + Cc1cnc(CNC(=O)c2c(=O)c3ccc(N4CCCN(C)CC4)nc3n3c2sc2ccccc23)cn1
38.1

Requested read-out: viability, T/C. Entry: Cn1ncnc1[C@H]1c2n[nH]c(=O)c3cc(F)cc(c23)N[C@@H]1c1ccc(F)cc1 + Cc1cnc(CNC(=O)c2c(=O)c3ccc(N4CCCN(C)CC4)nc3n3c2sc2ccccc23)cn1
28.2

// viability, T/C lookup, key: Cc1[nH]c2ccccc2c1CCNCc1ccc(/C=C/C(=O)NO)cc1 + Cc1[nH]c2ccc(F)cc2c1-c1nc2c3cccnc3c3ncccc3c2[nH]1
102

Sample Cc1[nH]c2ccccc2c1CCNCc1ccc(/C=C/C(=O)NO)cc1 + CN(C)c1ccc(Nc2c3ccc(NC(=O)CCN4CCCC4)cc3nc3cc(NC(=O)CCN4CCCC4)ccc23)cc1 — what was its viability, T/C?
113

Reported viability, T/C for CCc1c2c(nc3ccc(O)cc13)-c1cc3c(c(=O)n1C2)COC(=O)[C@]3(O)CC + Cc1[nH]c2ccc(F)cc2c1-c1nc2c3cccnc3c3ncccc3c2[nH]1 : what is it?
108

Need viability, T/C, item Cn1ncnc1[C@H]1c2n[nH]c(=O)c3cc(F)cc(c23)N[C@@H]1c1ccc(F)cc1 + CN(C)c1ccc(Nc2c3ccc(NC(=O)CCN4CCCC4)cc3nc3cc(NC(=O)CCN4CCCC4)ccc23)cc1
100

---
# lookup: viability, T/C of CC[C@@]1(O)C(=O)OCc2c1cc1n(c2=O)Cc2cc3c(CN(C)C)c(O)ccc3nc2-1 + Cc1[nH]c2ccc(F)cc2c1-c1nc2c3cccnc3c3ncccc3c2[nH]1
93

Which viability, T/C is listed for CCc1c2c(nc3ccc(O)cc13)-c1cc3c(c(=O)n1C2)COC(=O)[C@]3(O)CC + CN(C)c1ccc(Nc2c3ccc(NC(=O)CCN4CCCC4)cc3nc3cc(NC(=O)CCN4CCCC4)ccc23)cc1 ?
97.3
